Values compiled from patent US20230227427A1.

Biological target: human recombinant IL-17A (Homo sapiens, UniProt Q16552)
Construct: purchased R&D Systems 7955-IL/CF
Sequence (Q16552 24-155): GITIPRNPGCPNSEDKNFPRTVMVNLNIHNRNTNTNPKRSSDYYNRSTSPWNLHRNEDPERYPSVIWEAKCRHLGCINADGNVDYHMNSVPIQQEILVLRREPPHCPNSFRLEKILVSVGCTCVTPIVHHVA
Test: IL-17A AlphaLISA assay (block binding of IL-17A to its receptor IL-17RA)
Conditions: compounds pre-incubated with the IL-17A for 30 min (indicated by * in Table A); read-out: AlphaLISA pIC50 (converted)
Protocol: The ability of the compounds to block binding of IL-17A to its receptor, IL-17RA, was analysed in a competition assay using AlphaLISA technology (Perkin Elmer). […] The luminescence signal was measured using an Enspire plate reader (Perkin Elmer) with excitation at 680 nm and emission at 615 nm. Data were analysed using GraphPad Prism and fitted to a 4-parameter logistic equation. […]
Flag rule - IC50 less than 200 nM flags 1.0; the remaining entries get 0.0.

Answered cases to consult:
| compound | study-system | class-assignment |
| --- | --- | --- |
| Cc1n[nH]c(C)c1-c1ccc(NC(=O)[C@@H](NC(=O)c2ccnn2C)[C@H]2CC[C@H](C)CC2)cn1 | human recombinant IL-17A (Homo sapiens, UniProt Q16552) | 1.0 |
| CCn1nccc1C(=O)N[C@H](C(=O)Nc1ccc(-c2c(C)n[nH]c2C)nc1)[C@H]1CC[C@H](C)CC1 | human recombinant IL-17A (Homo sapiens, UniProt Q16552) | 1.0 |
| CCc1nocc1C(=O)N[C@H](C(=O)Nc1ccc(-c2c(C)cnn2C)cn1)C1CCCCC1 | human recombinant IL-17A (Homo sapiens, UniProt Q16552) | 1.0 |
| CCn1nccc1C(=O)NC(C(=O)Nc1ccc(-c2c(C)cnn2C)cn1)[C@H]1CC[C@H](C(F)(F)F)CC1 (stereo partly shown) | human recombinant IL-17A (Homo sapiens, UniProt Q16552) | 0.0 |

Moving on to another compound below.
Exercise: Strictly below 200 nM: is that where IC50 of `Cc1noc(C)c1-c1ccc(NC(=O)[C@@H](NC(=O)c2ccnn2C(C)C)[C@H]2CC[C@H](C)CC2)cn1` sits?
Key: 1.0

* * *

Target: human recombinant IL-17A (Homo sapiens, UniProt Q16552)
Construct: purchased R&D Systems 7955-IL/CF
Assay: IL-17A AlphaLISA assay (block binding of IL-17A to its receptor IL-17RA)
Conditions: compounds pre-incubated with the IL-17A for 30 min (indicated by * in Table A); read-out: AlphaLISA pIC50 (converted)
Method: The ability of the compounds to block binding of IL-17A to its receptor, IL-17RA, was analysed in a competition assay using AlphaLISA technology (Perkin Elmer). […] The luminescence signal was measured using an Enspire plate reader (Perkin Elmer) with excitation at 680 nm and emission at 615 nm. Data were analysed using GraphPad Prism and fitted to a 4-parameter logistic equation. […]
Answer each item with its documented IC50.
Numbers only, in nM.

For orientation, consider the following solved cases.
| compound-structure-string | study-system | recorded-metric | reading |
| --- | --- | --- | --- |
| CCc1nocc1C(=O)N[C@H](C(=O)Nc1cnc(-c2c(C)cnn2C)c(F)c1)[C@H]1CC[C@H](C)CC1 | human recombinant IL-17A (Homo sapiens, UniProt Q16552) | IC50 | 158 |
| CCn1nccc1C(=O)N[C@H](C(=O)Nc1ccc(-c2c(C)cnn2C)nc1)[C@H]1CC[C@H](C)CC1 | human recombinant IL-17A (Homo sapiens, UniProt Q16552) | IC50 | 251 |
| COCc1onc(C)c1-c1ccc(NC(=O)[C@@H](NC(=O)c2ccnn2C)C2CCCCCC2)nc1 | human recombinant IL-17A (Homo sapiens, UniProt Q16552) | IC50 | 398 |
| Cn1nncc1C(=O)N[C@H](C(=O)Nc1ccc(-c2c(Cl)cnn2C)cn1)[C@H]1CC[C@H](C)CC1 | human recombinant IL-17A (Homo sapiens, UniProt Q16552) | IC50 | 398 |
| Cn1nccc1C(=O)N[C@H](C(=O)Nc1ccc(-c2c(O)cnn2C)cn1)C1CCCCCC1 | human recombinant IL-17A (Homo sapiens, UniProt Q16552) | IC50 | 631 |
| Cc1cnn(C)c1-c1ccc(NC(=O)[C@@H](NC(=O)c2conc2C(C)(C)C)[C@H]2CC[C@H](C)CC2)nc1 | human recombinant IL-17A (Homo sapiens, UniProt Q16552) | IC50 | 200 |

Dear colleague, could you please provide IC50 for the compounds listed below?
1. Cn1nccc1C(=O)N[C@H](C(=O)Nc1ccc(-c2c(C3CC3)nnn2C)cn1)C1CCCCCC1
2. Cc1nocc1C(=O)N[C@H](C(=O)Nc1ccc(-c2c(C)noc2C)nc1)C1CCCCCC1
3. Cn1nccc1C(=O)N[C@H](C(=O)Nc1ccc(-c2c(C#N)cnn2C)cn1)[C@H]1CC[C@H](C)CC1

Key:
158
158
251
